# TARGET OR TEST SYSTEM: GST-Bcl-XL (Homo sapiens, UniProt Q07817)
# Sequence (Q07817 whole entry): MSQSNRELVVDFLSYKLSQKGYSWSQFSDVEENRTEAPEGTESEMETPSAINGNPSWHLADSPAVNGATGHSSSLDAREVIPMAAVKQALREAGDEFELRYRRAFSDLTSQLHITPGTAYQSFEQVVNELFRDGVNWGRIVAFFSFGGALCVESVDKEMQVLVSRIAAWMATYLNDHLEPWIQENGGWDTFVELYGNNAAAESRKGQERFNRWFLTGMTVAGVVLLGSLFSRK
# TEST DESCRIPTION: TR-FRET binding assay, GST-Bcl-XL with F-Bak peptide probe
# COND: TR-FRET Binding Affinity, GST-Bcl-XL, F-Bak peptide probe
pKi: −log10 of the molar value.
// pKi lookup, one value per entry
MEASUREMENT KIND: pKi

COMPOUND	VALUE OPERATOR	MEASURED NUMBER
CC1(C)CCC(CN2CCN(c3ccc(C(=O)NS(=O)(=O)c4ccc(NCC5CCOCC5)c(C(F)(F)F)c4)c(Oc4ccc5[nH]ccc5c4)c3)CC2)=C(c2ccc(Cl)cc2)C1	<	6.18
CC1(C)CCC(CN2CCN(c3ccc(C(=O)NS(=O)(=O)c4ccc(NCC5CCCCC5)c([N+](=O)[O-])c4)c(Oc4ccc5[nH]ccc5c4)c3)CC2)=C(c2ccc(Cl)cc2)C1	<	6.18
CC(C1=C(c2ccc(Cl)cc2)CC(C)(C)CC1)N1CCN(c2ccc(C(=O)NS(=O)(=O)c3ccc(NCCCN4CCOCC4)c([N+](=O)[O-])c3)c(Oc3ccc4[nH]ccc4c3)c2)CC1 (centres unmarked)	=	7.77
CC1(C)CCC(CN2CCN(c3ccc(C(=O)NS(=O)(=O)c4ccc(NCCCN5CCCC5)c([N+](=O)[O-])c4)c(Oc4cccc5[nH]ccc45)c3)CC2)=C(c2ccc(C(F)(F)F)cc2)C1	=	7.04
CN(C)CC(=O)N1CC[C@@H](Nc2ccc(S(=O)(=O)NC(=O)c3ccc(N4CCN(CC5=C(c6ccc(Cl)cc6)CC(C)(C)CC5)CC4)cc3Oc3cccc4[nH]cnc34)cc2[N+](=O)[O-])C1	=	9.00
CC(C1=C(c2ccc(Cl)cc2)CC(C)(C)CC1)N1CCN(c2ccc(C(=O)NS(=O)(=O)c3ccc(NN4CCN(C)CC4)c([N+](=O)[O-])c3)c(Oc3ccc4[nH]ccc4c3)c2)CC1 (centres unmarked)	=	7.27
CC1(C)CCC(CN2CCN(c3ccc(C(=O)NS(=O)(=O)c4ccc(NCCCN5CCOCC5)c([N+](=O)[O-])c4)c(Oc4ccccc4)c3)CC2)=C(c2ccc(Cl)cc2)C1	=	8.09
CN(C)CCCOc1ccc(-c2ccc(Cl)cc2)c(CN2CCN(c3ccc(C(=O)NS(=O)(=O)c4ccc(NCC5CCOCC5)c([N+](=O)[O-])c4)c(Oc4ccccc4)c3)CC2)c1	=	8.08
C#Cc1cc(S(=O)(=O)NC(=O)c2ccc(N3CCN(CC4=C(c5ccc(Cl)cc5)CC(C)(C)CC4)CC3)cc2Oc2cccc3[nH]ccc23)cnc1OCC1CCOCC1	<	6.18
CN1CCC(Nc2ccc(S(=O)(=O)NC(=O)c3ccc(N4CCN(CC5=C(c6ccc(Cl)cc6)CCCC5)CC4)cc3Oc3ccc4[nH]ccc4c3)cc2[N+](=O)[O-])CC1	=	6.97
CC1(C)CCC(CN2CCN(c3ccc(C(=O)NS(=O)(=O)c4ccc(NC5CCN(C6CCOCC6)CC5)c([N+](=O)[O-])c4)c(Oc4ccc5[nH]ccc5c4)c3)CC2)=C(c2ccc(Cl)cc2)C1	=	7.66
CC1(C)CCC(CN2CCN(c3ccc(C(=O)NS(=O)(=O)c4ccc(NC5CCN(C6CCCC6)CC5)c([N+](=O)[O-])c4)c(Oc4ccc5[nH]ccc5c4)c3)CC2)=C(c2ccc(Cl)cc2)C1	<	6.18
CC1(C)CCC(CN2CCN(c3ccc(C(=O)NS(=O)(=O)c4ccc(NCCCS(C)(=O)=O)c([N+](=O)[O-])c4)c(Oc4cccc5[nH]ccc45)c3)CC2)=C(c2ccc(Cl)cc2)C1	=	7.19
O=C(NS(=O)(=O)c1ccc(-n2ncc([N+](=O)[O-])n2)cc1)c1ccc(N2CCN(Cc3ccccc3-c3ccc(Cl)cc3)CC2)cc1Oc1ccccc1	<	6.18
O=C(NS(=O)(=O)c1ccc(NCC2CCOCC2)c([N+](=O)[O-])c1)c1ccc(N2CCN(Cc3ccccc3-c3ccc(Cl)cc3)CC2)cc1Oc1cccc2[nH]ccc12	<	6.18
CC1(C)CCC(CN2CCN(c3ccc(C(=O)NS(=O)(=O)c4ccc(NCC5COCCO5)c([N+](=O)[O-])c4)c(Oc4ccc5[nH]ccc5c4)c3)CC2)=C(c2ccc(Cl)cc2)C1 (centres unmarked)	=	6.62
CO[C@H]1CC[C@H](CNc2ccc(S(=O)(=O)NC(=O)c3ccc(N4CCN(CC5=C(c6ccc(Cl)cc6)CC(C)(C)CC5)CC4)cc3Oc3ccc4[nH]ccc4c3)cc2[N+](=O)[O-])CC1	<	6.18
CC1(C)CCC(CN2CCN(c3ccc(C(=O)NS(=O)(=O)c4ccc(NN5CCOCC5)c([N+](=O)[O-])c4)c(Oc4cccc5[nH]ccc45)c3)CC2)=C(c2ccc(Cl)cc2)C1	<	6.18
CC(C)Oc1cc(-c2ccc(Cl)cc2)c(CN2CCN(c3ccc(C(=O)NS(=O)(=O)c4ccc(NCC5CCOCC5)c([N+](=O)[O-])c4)c(Oc4ccc5[nH]ccc5c4)c3)CC2)cn1	<	6.18
COCCCNc1ccc(S(=O)(=O)NC(=O)c2ccc(N3CCN(CC4=C(c5ccc(Cl)cc5)CC(C)(C)CC4)CC3)cc2Oc2ccc3[nH]ccc3c2)cc1[N+](=O)[O-]	<	6.18

###

# TARGET OR TEST SYSTEM: GST-Bcl-2 (Homo sapiens, UniProt P10415)
# Sequence (P10415 whole entry): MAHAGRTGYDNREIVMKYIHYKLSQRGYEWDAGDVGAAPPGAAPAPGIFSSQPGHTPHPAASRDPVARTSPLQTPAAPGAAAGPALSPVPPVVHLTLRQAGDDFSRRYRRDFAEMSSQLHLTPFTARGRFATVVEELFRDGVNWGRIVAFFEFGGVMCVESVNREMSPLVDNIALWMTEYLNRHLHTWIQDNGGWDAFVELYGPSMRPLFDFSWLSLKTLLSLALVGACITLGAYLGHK
# TEST DESCRIPTION: TR-FRET binding assay, GST-Bcl-2 with F-Bak peptide probe
# COND: TR-FRET; Bcl-XL Ki divided by Bcl-2 Ki
// Binding selectivity ratio (Bcl-XL Ki/Bcl-2 Ki) lookup, one value per entry
MEASUREMENT KIND: Binding selectivity ratio (Bcl-XL Ki/Bcl-2 Ki)

MOLECULE	RESULT
CCN(C)C(=O)N1CCOC(CNc2ccc(S(=O)(=O)NC(=O)c3ccc(N4CCN(CC5=C(c6ccc(Cl)cc6)CC(C)(C)CC5)CC4)cc3Oc3cccc4[nH]ncc34)cc2[N+](=O)[O-])C1 (stereo not shown)	>445.7
CC1(C)CCC(CN2CCN(c3ccc(C(=O)NS(=O)(=O)c4ccc(N[C@H]5CC[C@H](N6CCOCC6)CC5)c([N+](=O)[O-])c4)c(Oc4cccc5[nH]cnc45)c3)CC2)=C(c2ccc(Cl)cc2)C1	600.4
CC1(C)CCC(CN2CCN(c3ccc(C(=O)NS(=O)(=O)c4ccc(OCC5(F)CCN(C6COC6)CC5)c(Cl)c4)c(Oc4cccc5[nH]ncc45)c3)CC2)=C(c2ccc(Cl)cc2)C1	>607.7
CC1(C)CCC(CN2CCN(c3ccc(C(=O)NS(=O)(=O)c4ccc(OCC5CCOCC5)c(Cl)c4)c(Oc4cccc5[nH]cnc45)c3)CC2)=C(c2ccc(Cl)cc2)C1	>482.3
CC1(C)CCC(CN2CCN(c3ccc(C(=O)NS(=O)(=O)c4ccc(OCC5(F)CCOCC5)c([N+](=O)[O-])c4)c(Oc4cccc5[nH]nnc45)c3)CC2)=C(c2ccc(Cl)cc2)C1	25935.4
CC1(C)CCC(CN2CCN(c3ccc(C(=O)NS(=O)(=O)c4cnc(NC5CCN(C6CC6)CC5)c(Cl)c4)c(Oc4cccc5[nH]ncc45)c3)CC2)=C(c2ccc(Cl)cc2)C1	3119.3
CC[C@]1(O)CC[C@H](COc2ncc(S(=O)(=O)NC(=O)c3ccc(N4CCN(CC5=C(c6ccc(Cl)cc6)CC(C)(C)CC5)CC4)cc3Oc3cccc4[nH]ncc34)cc2Cl)CC1	>4315.2
CC1(O)CCC(COc2ncc(S(=O)(=O)NC(=O)c3ccc(N4CCN(CC5=C(c6ccc(Cl)cc6)CCC(F)(F)C5)CC4)cc3Oc3cccc4[nH]ncc34)cc2Cl)CC1 (stereo not shown)	>1257.8
CC1(C)CCC(CN2CCN(c3ccc(C(=O)NS(=O)(=O)c4ccc(NC[C@H]5CC[C@](C)(O)CC5)c([N+](=O)[O-])c4)c(Oc4cccc5[nH]ncc45)c3)CC2)=C(c2ccc(Cl)cc2)C1	>1898.4
CC1(C)CCC(CN2CCN(c3ccc(C(=O)NS(=O)(=O)c4ccc(OCC5CCC(C)(O)CC5)c([N+](=O)[O-])c4)c(Oc4cccc5[nH]ncc45)c3)CC2)=C(c2ccc(Cl)cc2)C1 (stereo not shown) [Example 533]	>1044.3

###

// Ki lookup, one value per entry
# TARGET OR TEST SYSTEM: GST-Bcl-XL (Homo sapiens, UniProt Q07817)
# TEST DESCRIPTION: TR-FRET binding assay, GST-Bcl-XL with F-Bak peptide probe
# COND: TR-FRET Binding Affinity

MOLECULE	Ki [nM]
CC1(C)CCC(CN2CCN(c3ccc(C(=O)NS(=O)(=O)c4ccc(NC[C@H]5CC[C@H](C#N)CC5)c([N+](=O)[O-])c4)c(Oc4cccc5[nH]cnc45)c3)CC2)=C(c2ccc(Cl)cc2)C1	18.4
CC1(C)CCC(CN2CCN(c3ccc(C(=O)NS(=O)(=O)c4ccc(NC[C@H]5CC[C@H](C#N)CC5)c([N+](=O)[O-])c4)c(Oc4cccc5[nH]ncc45)c3)CC2)=C(c2ccc(Cl)cc2)C1	34.3
CC1(C)CCC(CN2CCN(c3ccc(C(=O)NS(=O)(=O)c4ccc(OCC5CCOCC5)c(Cl)c4)c(Oc4cccc5[nH]ncc45)c3)CC2)=C(c2ccc(Cl)cc2)C1	125
Cn1cncc1COc1ncc(S(=O)(=O)NC(=O)c2ccc(N3CCN(CC4=C(c5ccc(Cl)cc5)CC(C)(C)CC4)CC3)cc2Oc2cccc3[nH]ncc23)cc1Cl	25.5
CC1(C)CCC(CN2CCN(c3ccc(C(=O)NS(=O)(=O)c4ccc(NCC5CCOCC5)c([N+](=O)[O-])c4)c(Oc4cccc5[nH]nnc45)c3)CC2)=C(c2ccc(Cl)cc2)C1	49.4
CC1(C)CCC(CN2CCN(c3ccc(C(=O)NS(=O)(=O)c4ccc(NCC5CCOCC5)c([N+](=O)[O-])c4)c(Oc4ccccc4)c3)CC2)=C(c2ccc(Cl)cc2)C1	29
CC1(C)CCC(CN2CCN(c3ccc(C(=O)NS(=O)(=O)c4cnc(OCC5CCC(C)(O)CC5)c(Cl)c4)c(Oc4cccc5[nH]ncc45)c3)CC2)=C(c2ccc(Cl)cc2)C1 (centres unmarked) [Example 494]	15.6
CC1(C)CCC(CN2CCN(c3ccc(C(=O)NS(=O)(=O)c4cnc(OCC5(O)CCC(F)(F)CC5)c(Cl)c4)c(Oc4cccc5[nH]ncc45)c3)CC2)=C(c2ccc(Cl)cc2)C1	106
CC1(C)CCC(CN2CCN(c3ccc(C(=O)NS(=O)(=O)c4cnc(OC[C@]5(F)CC[C@](C)(O)CC5)c(Cl)c4)c(Oc4cccc5[nH]ncc45)c3)CC2)=C(c2ccc(Cl)cc2)C1	6.46
CC1(C)CCC(CN2CCN(c3ccc(C(=O)NS(=O)(=O)c4ccc(OCC5COCCO5)c([N+](=O)[O-])c4)c(Oc4cccc5[nH]ncc45)c3)CC2)=C(c2ccc(Cl)cc2)C1 (centres unmarked)	65.8
O=C(NS(=O)(=O)c1cnc(OCC2(F)CCN(C3COC3)CC2)c(Cl)c1)c1ccc(N2CCN(CC3=C(c4ccc(Cl)cc4)CCC(F)(F)C3)CC2)cc1Oc1cccc2[nH]ncc12	2.08
CC1(C)CCC(CN2CCN(c3cc(Oc4cccc5[nH]ncc45)c(C(=O)NS(=O)(=O)c4cnc(OCC5(F)CCOCC5)c(Cl)c4)cc3Cl)CC2)=C(c2ccc(Cl)cc2)C1	174
CC1(C)CCC(CN2CCN(c3ccc(C(=O)NS(=O)(=O)c4ccc(OCC5CCC(C)(O)CC5)c([N+](=O)[O-])c4)c(Oc4cccc5[nH]ncc45)c3)CC2)=C(c2ccc(Cl)cc2)C1 (centres unmarked) [Example 532]	9.81
CC1(C)CCC(CN2CCN(c3ccc(C(=O)NS(=O)(=O)c4cnc(OCCn5ccnc5)c(Cl)c4)c(Oc4cccc5[nH]ncc45)c3)CC2)=C(c2ccc(Cl)cc2)C1	54.2
CC1(C)CCC(CN2CCN(c3ccc(C(=O)NS(=O)(=O)c4cnc(OCC5(F)CCN(C(CF)CF)CC5)c(C(F)(F)F)c4)c(Oc4cccc5[nH]ncc45)c3)CC2)=C(c2ccc(Cl)cc2)C1	5.42
CC1(C)CCC(CN2CCN(c3ccc(C(=O)NS(=O)(=O)c4cnc(OCC5(F)CCC(O)CC5)c(Cl)c4)c(Oc4cccc5[nH]ncc45)c3)CC2)=C(c2ccc(Cl)cc2)C1 (centres unmarked)	2.55
CC[C@]1(O)CC[C@H](COc2ncc(S(=O)(=O)NC(=O)c3ccc(N4CCN(CC5=C(c6ccc(Cl)cc6)CC(C)(C)CC5)CC4)cc3Oc3cccc4[nH]ncc34)cc2Cl)CC1	43.2
CC1(C)CCC(CN2CCN(c3ccc(C(=O)NS(=O)(=O)c4ccc(OCC5(F)CCOCC5)c(Cl)c4)c(Oc4cccc5[nH]ncc45)c3)CC2)=C(c2ccc(Cl)cc2)C1	521
CC1(C)CCC(CN2CCN(c3ccc(C(=O)NS(=O)(=O)c4cnc(OCC5CCC(F)(F)CC5)c(Cl)c4)c(Oc4cccc5[nH]cnc45)c3)CC2)=C(c2ccc(Cl)cc2)C1	43.9
CC(=O)N1CCOC(CNc2ccc(S(=O)(=O)NC(=O)c3ccc(N4CCN(CC5=C(c6ccc(Cl)cc6)CC(C)(C)CC5)CC4)cc3Oc3cccc4[nH]cnc34)cc2[N+](=O)[O-])C1 (centres unmarked)	331

This collection of values is drawn from patent US9073855B2.
